- study_system: human Retinoid X Receptor beta (RXRb), RXRB (gene 6257) (UniProt P28702)
- Sequence (P28702 whole entry, looked up): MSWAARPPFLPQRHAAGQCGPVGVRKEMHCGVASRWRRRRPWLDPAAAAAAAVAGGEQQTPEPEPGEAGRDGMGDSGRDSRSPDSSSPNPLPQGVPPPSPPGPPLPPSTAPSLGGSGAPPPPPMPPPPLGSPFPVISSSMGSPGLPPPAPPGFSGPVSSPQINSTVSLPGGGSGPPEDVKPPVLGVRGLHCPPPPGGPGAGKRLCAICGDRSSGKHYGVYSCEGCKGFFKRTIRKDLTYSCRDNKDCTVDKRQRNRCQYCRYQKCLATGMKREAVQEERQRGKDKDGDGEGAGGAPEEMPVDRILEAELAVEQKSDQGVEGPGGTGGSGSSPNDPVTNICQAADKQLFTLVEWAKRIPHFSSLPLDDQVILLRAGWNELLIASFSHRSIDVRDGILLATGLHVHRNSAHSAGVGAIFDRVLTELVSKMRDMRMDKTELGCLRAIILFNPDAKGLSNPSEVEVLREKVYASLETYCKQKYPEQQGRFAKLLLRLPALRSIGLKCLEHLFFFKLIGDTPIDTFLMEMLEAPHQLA
- experiment_notes: ATG_RXRb_TRANS: Attagene TRANS-FACTORIAL HepG2 Assay for human Retinoid X Receptor beta (RXRb) (AID 2283013)
Inconclusive results are not listed. Activity calls are given as the source filed them. The calls were made as follows: active = hit-call score of the fitted dose curve at least 0.9, where 1 is the maximum; inconclusive = response in the unintended direction; inactive = score below 0.9.
Labels: active, inactive

compound	study_system	category_label
Cc1cnc(NC(=O)C2=C(O)c3ccccc3S(=O)(=O)N2C)s1	human Retinoid X Receptor beta (RXRb), RXRB (gene 6257) (UniProt P28702)	inactive
O=C1CCCCCCCCCCC(=O)OCCO1	human Retinoid X Receptor beta (RXRb), RXRB (gene 6257) (UniProt P28702)	inactive
CCCCC(CC)COC(=O)c1ccccc1 (stereo unspecified)	human Retinoid X Receptor beta (RXRb), RXRB (gene 6257) (UniProt P28702)	active
O=c1cc(-c2ccccc2)oc2ccccc12	human Retinoid X Receptor beta (RXRb), RXRB (gene 6257) (UniProt P28702)	inactive
CCC(CO)CO	human Retinoid X Receptor beta (RXRb), RXRB (gene 6257) (UniProt P28702)	inactive
COc1cc(NC(=O)CC(C)=O)c(OC)cc1Cl	human Retinoid X Receptor beta (RXRb), RXRB (gene 6257) (UniProt P28702)	inactive
CCC(C)(C)C1CCCCC1OC(C)=O (stereo unspecified)	human Retinoid X Receptor beta (RXRb), RXRB (gene 6257) (UniProt P28702)	active
CC1(C)O[C@@H]2C[C@H]3[C@@H]4C[C@H](F)C5=CC(=O)C=C[C@]5(C)[C@@]4(F)[C@@H](O)C[C@]3(C)[C@]2(C(=O)CO)O1	human Retinoid X Receptor beta (RXRb), RXRB (gene 6257) (UniProt P28702)	inactive
COc1ccc(-c2coc3cc(O)ccc3c2=O)cc1	human Retinoid X Receptor beta (RXRb), RXRB (gene 6257) (UniProt P28702)	inactive
CCCCCCCC(C)=O	human Retinoid X Receptor beta (RXRb), RXRB (gene 6257) (UniProt P28702)	inactive
COC(=O)c1ccccc1OC	human Retinoid X Receptor beta (RXRb), RXRB (gene 6257) (UniProt P28702)	inactive
COc1ccc([C@@H]2CC(=O)c3c(O)cc(O[C@@H]4O[C@H](CO[C@@H]5O[C@@H](C)[C@H](O)[C@@H](O)[C@H]5O)[C@@H](O)[C@H](O)[C@H]4O)cc3O2)cc1OC	human Retinoid X Receptor beta (RXRb), RXRB (gene 6257) (UniProt P28702)	inactive
O=C1CC2CC1C1CCCC21 (stereo unspecified)	human Retinoid X Receptor beta (RXRb), RXRB (gene 6257) (UniProt P28702)	inactive
C[Si](C)(C)O[Si](O)(O)O	human Retinoid X Receptor beta (RXRb), RXRB (gene 6257) (UniProt P28702)	inactive
Cc1ccc(C(C)c2ccc(C)c(C)c2)cc1C	human Retinoid X Receptor beta (RXRb), RXRB (gene 6257) (UniProt P28702)	inactive
c1ccc2c(c1)ccc1cc3c(ccc4ccccc43)cc12	human Retinoid X Receptor beta (RXRb), RXRB (gene 6257) (UniProt P28702)	inactive
CCCCC/C=C\CCC=O	human Retinoid X Receptor beta (RXRb), RXRB (gene 6257) (UniProt P28702)	inactive
CCCCCCCCCCCSCC(=O)O	human Retinoid X Receptor beta (RXRb), RXRB (gene 6257) (UniProt P28702)	active
COCCCOCCCOC	human Retinoid X Receptor beta (RXRb), RXRB (gene 6257) (UniProt P28702)	inactive
CCCCCCCC/C=C\CCCCCCCC(=O)OCCO	human Retinoid X Receptor beta (RXRb), RXRB (gene 6257) (UniProt P28702)	active
O=C(Nc1cccc(C(F)(F)F)c1)c1cc(Br)cc(Br)c1O	human Retinoid X Receptor beta (RXRb), RXRB (gene 6257) (UniProt P28702)	inactive
C[C@]12CCC(=O)C=C1CC[C@@H]1[C@@H]2C(=O)C[C@@]2(C)[C@H]1CC[C@]2(O)C(=O)CO	human Retinoid X Receptor beta (RXRb), RXRB (gene 6257) (UniProt P28702)	inactive
O=Nc1ccc(O)cc1	human Retinoid X Receptor beta (RXRb), RXRB (gene 6257) (UniProt P28702)	inactive
Cc1c(C)c([N+](=O)[O-])c(C(C)(C)C)c([N+](=O)[O-])c1C	human Retinoid X Receptor beta (RXRb), RXRB (gene 6257) (UniProt P28702)	active
Nc1ccc(-c2ccc(F)cc2)cc1	human Retinoid X Receptor beta (RXRb), RXRB (gene 6257) (UniProt P28702)	inactive
Cc1ccc2oc(=O)ccc2c1	human Retinoid X Receptor beta (RXRb), RXRB (gene 6257) (UniProt P28702)	inactive
